System: MALME-3M melanoma
Test: NCI tumour cell line growth inhibition, 48 h
value-kind: TGI (µM)
Just the number in µM, nothing appended.

Query :: Quick one: TGI of N=C(N)c1ccc(-c2ccc(-c3ccccc3)s2)cc1 ?
Result :: 2.83

Query :: So what's the measured TGI for this one? Cc1ccc([N+](=O)[O-])cc1S(=O)(=O)Nc1ccc(C2=NNC(c3ccccc3O)C2)cc1 (configuration not stated)
Result :: 96.3

Query :: Look at this compound and give its reported TGI. O=C(N/N=C/c1ccc([N+](=O)[O-])o1)c1ccc(C(=O)N/N=C/c2ccc([N+](=O)[O-])o2)cc1
Result :: 48.7

Query :: Item under review: CC(=O)Oc1cc2c(c3ncccc13)OC(C)(C)C2 . Reported TGI?
Result :: 23.4

Query :: May I ask what TGI has been recorded for CC(C)CCC[C@@H](C)C1CCC2[C@@H]3CC=C4C[C@@H](C(=O)NCC[N+](C)(C)CCCS(=O)(=O)[O-])CC[C@]4(C)C3CC[C@@]21C (some centres not stated) ?
Result :: 33.3

Query :: Entry under review: CC=CCOc1cc(NC(=S)OC(C)C)ccc1Cl (mixture of isomers) . Reported TGI?
Result :: 29.6

Query :: Record request: TGI value, item C=C1c2[nH]c3ccccc3c2C2C(CC)C1CCN2C (configuration not stated)
Result :: 56.5

Query :: Give the measured TGI of O=[N+]([O-])/C=C/c1cc2ccccc2[nH]1 .
Result :: 59.8

Query :: Any idea what TGI was measured for CCN(CC)CCCn1c(=O)c2ccccc2n2c3c(=O)n(C)c(=O)n(C)c3nc12 ?
Result :: 21.4
